- System: Puccinia recondita f. sp. tritici
- TEST DESCRIPTION: Test I: wheat leaf rust on wheat seedlings, sprayed the day before inoculation, visual disease rating
- Format: in vivo
- EXPERIMENTAL SETUP: 200 ppm; 100 = 100% disease control, 0 = no control
OBSERVATION TYPE: Test I disease control rating (%)
Numbers only, in %.

> print(dat)
                                   compound               observation.type  units.symbol  observed.value
1  Cc1ccc(-n2c(Cl)nc(Cl)c2-c2c(F)ccc(F)c2F)cc1C  Test I disease control rating             %               0
2  Fc1cc(-n2c(Cl)nc(Cl)c2-c2c(F)cccc2Cl)ccc1Cl  Test I disease control rating             %              94
3  COc1cc(F)c(-c2c(Cl)nc(Br)n2Cc2ccc(C)cc2)c(F)c1  Test I disease control rating             %              99
4  COc1cc(F)c(-c2c(N(C)C)ncn2Cc2ccc(Cl)cc2)c(F)c1 [compound 269]  Test I disease control rating             %               9
5  Fc1cccc(F)c1-c1c(Cl)nc(Br)n1-c1cccc(Cl)c1  Test I disease control rating             %              97

Fill in Test I disease control rating for each of the 8 compounds listed.
1. N#Cc1cc(F)c(-c2c(Cl)ncn2-c2ccc(Cl)cc2)c(F)c1
2. Cc1ccc(-n2c(Cl)nc(Cl)c2-c2c(F)cccc2Cl)cc1
3. Fc1ccc(-c2c(Cl)ncn2-c2ccc(Cl)c(F)c2)c(Cl)c1
4. Fc1cccc(F)c1-n1c(Cl)nc(Cl)c1-c1ccc(Cl)cc1
5. COc1ccc(F)c(-c2c(Cl)nc(Br)n2Cc2ccc(Cl)cc2)c1F
6. COc1cc(F)c(-c2c(C)ncn2-c2ccc(Cl)nc2)c(F)c1
7. Fc1cc(-n2c(Br)nc(Cl)c2-c2c(F)cccc2Cl)ccc1Cl
8. Cc1nc(Cl)c(-c2c(F)cccc2F)n1-c1cnc2ccccc2c1

1: 97; 2: 99; 3: 80; 4: 97; 5: 94; 6: 99; 7: 100; 8: 98
